Data origin, for the record: paper PMC5540273

- System: RSK4(Kin.Dom.2-C-terminal);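 note: kd values determined as follow-up on hits from a single-replicate KINOMEscan panel screen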
- Construct: gene RPS6KA6
ATTRIBUTE_MEASURED: Kd (nM)
The response must be a number in nM with no trailing unit.

Quick one: Kd of "CCc1nc(-c2cccc(C)c2)c(-c2ccncc2)s1" ?
120

###

- Tested on: MARK3
- EXPERIMENTAL_SETUP: concentration: 1 μM, replicates: in singlicate; n = 1
ATTRIBUTE_MEASURED: %Inh (%)
The response must be a number in % with no trailing unit.

Quick one: %Inh of "COc1ccc(-c2cc3c(C)nc(N)nc3n([C@H]3CC[C@H](O)CC3)c2=O)cn1" ?
0

Quick one: %Inh of "FC(F)(F)c1ccc(-c2ncn(CCCN3CCOCC3)c2-c2ccncc2)cc1" ?
3

Quick one: %Inh of "COc1cc2ncn(-c3cc(OCc4ccncc4Br)c(C(N)=O)s3)c2cc1OC" ?
0

Quick one: %Inh of COc1cc(Nc2nccc(N3CCC(NC(=O)C(C)c4ccc(Cl)cc4)C3)n2)cc(OC)c1OC (centres unmarked) ?
0

Quick one: %Inh of "COC(=O)c1c(-c2ccccc2)c2cc(Br)ccc2c(=O)n1Cc1ccc(S(C)(=O)=O)cc1" ?
11

Quick one: %Inh of "Nc1n[nH]c2ncc(-c3ccccc3)cc12" ?
0

Quick one: %Inh of "CN(C)c1cc(-c2ccc3c(N)n[nH]c3c2)nc(N)n1" ?
0

Quick one: %Inh of "Cc1ccc(-c2ccc3c(ccc4sc5c(c43)NC[C@@H](C)N=C5N(C)C)n2)cn1" ?
0

Quick one: %Inh of "COc1cc2nccc(Nc3cccc(Oc4ccccc4)c3)c2cc1OC.Cl" ?
31

Quick one: %Inh of "Cc1nc(N(C)[C@H]2CN(C(=O)CC#N)CC[C@H]2C)c2cc[nH]c2n1" ?
0

Quick one: %Inh of "CCn1c(-c2nonc2N)nc2ccccc21" ?
0

###

- System: GSK3B
- EXPERIMENTAL_SETUP: concentration: 1 μM, replicates: in singlicate; n = 1
ATTRIBUTE_MEASURED: %Inh (%)
The response must be a number in % with no trailing unit.

Quick one: %Inh of "COC(=O)c1c(-c2ccccc2)c2cc(Br)ccc2c(=O)n1Cc1ccc(S(C)(=O)=O)cc1" ?
19

Quick one: %Inh of "O=C(Nc1ccc2c(c1)OCO2)NC1CCN(c2ccnc(NCc3ccc(F)cc3)n2)CC1" ?
8

Quick one: %Inh of "Cn1c(=O)c(F)c(Nc2ccc(I)cc2F)c2c(=O)n(OC[C@H](O)CO)cnc21" ?
3

Quick one: %Inh of "Cl.NS(=O)(=O)c1cccc(Nc2cc(-c3ccc(F)cc3)n[nH]2)c1" ?
6

Quick one: %Inh of "Cl.c1ccc(Cn2cnc3cc(Nc4ncnc5ccccc45)ccc32)cc1" ?
1

Quick one: %Inh of "CCC(=O)c1c(-c2ccccc2)c2cc(Cl)ccc2c(=O)n1Cc1ccc(C(=O)O)cc1" ?
0

Quick one: %Inh of "COc1cc(Nc2ccnc3ccc(C(F)(F)F)cc23)cc(OC)c1OC" ?
3

Quick one: %Inh of "CCC(=O)c1c(-c2ccccc2)c2cc(Cl)ccc2c(=O)n1Cc1cc(S(C)(=O)=O)n(CC(N)=O)n1" ?
0
